These measurements were taken from paper PMC12775819.

SUV at 2 h by entry:
Assay: in vivo
Conditions: male, BALB/c nu/nu, mouse, iv, 500 pmol, total radioactivity, SUV tumor
Non-standard residues stand in square brackets, D forms with d. Residues, ends and D or L forms follow the SMILES beside them. *: point of attachment. DOTA = O=C(O)CN1CCN(CC(=O)O)CCN(CC(=O)*)CCN(CC(=O)O)CC1; EuK = O=C(O)CC[C@H](NC(=O)N[C@@H](CCCCN*)C(=O)O)C(=O)O; 2Nal = N[C@@H](Cc1ccc2ccccc2c1)C(=O)O; Trx = NC[C@H]1CC[C@H](C(=O)O)CC1
Report the value in SUV with no unit label.

- Compound: "O=C(O)CC[C@H](NC(=O)N[C@@H](CCCCNC(=O)[C@H](Cc1ccc2ccccc2c1)NC(=O)[C@H]1CC[C@H](CNC(=O)[C@H](Cc2c[nH]cn2)NC(=O)[C@H](CCC(=O)O)NC(=O)[C@H](Cc2c[nH]cn2)NC(=O)[C@H](CCC(=O)O)NC(=O)[C@H](Cc2c[nH]cn2)NC(=O)[C@H](CCC(=O)O)NC(=O)CN2CCN(CC(=O)O)CCN(CC(=O)O)CCN(CC(=O)O)CC2)CC1)C(=O)O)C(=O)O [PS3, EuK-NaI-ChX-(HE)3-DOTA] ({DOTA}-EHEHEH[Trx][2Nal]-EuK)"
  Readout: "SUV at 2 h"
  Recorded number: 0.92

Attention now shifts to the item below.
Inquiry: Using the record for O=C(O)CC[C@H](NC(=O)N[C@@H](CCCCNC(=O)[C@H](Cc1ccc2ccccc2c1)NC(=O)[C@H]1CC[C@H](CNC(=O)[C@H](CCC(=O)O)NC(=O)[C@H](Cc2c[nH]cn2)NC(=O)[C@H](CCC(=O)O)NC(=O)[C@H](Cc2c[nH]cn2)NC(=O)[C@H](CCC(=O)O)NC(=O)[C@H](Cc2c[nH]cn2)NC(=O)CN2CCN(CC(=O)O)CCN(CC(=O)O)CCN(CC(=O)O)CC2)CC1)C(=O)O)C(=O)O [PS4, EuK-NaI-ChX-(EH)3-DOTA] ({DOTA}-HEHEHE[Trx][2Nal]-EuK) , report its SUV at 2 h.
Reply text: 1.07
